# Tested on: human telomerase (extract of HL60 cells enriched in telomerase activity)
# Method Summary: TRAP assay of telomerase activity (extension of oligonucleotide TS, PCR amplification)
# Type: biochemical
# Particulars: compounds at 10, 1, 0.1 and 0.01 μg/ml
# Method: The antitelomerase biological activity is determined by the following experimental protocol: Preparation of the Extract Enriched in Human Telomerase Ectivity: […] The samples are then analyzed by electrophoresis on 12% acrylamide gel in a 1×TBE buffer for 1 hour at a voltage of 200 volts, with the aid of a Novex electrophoresis system. […] The analysis and the quantification of the reaction products are carried out with the aid of an InstantImager apparatus (Pacard). […]
Test Readout: IC50 (µM)
Quick reminder: number only, in µM, skip the unit.

Prompt line: Name the recorded IC50 for CSc1nc(NCCN(C)C)nc(Nc2ccc3nc(C)cc(N)c3c2)n1 .
Response line: 0.79
